Where do these numbers come from? They come from ChEMBL document CHEMBL4373711.

assay summary: Selectivity index, ratio of IC50 for human HepG2 cells to MIC>99 for antimycobacterial activity against multi-drug resistant Mycobacterium tuberculosis 234/2005 after 21 days
Format: toxicity
condition label: read-out: Selectivity Index
measured quantity: selectivity ratio at 504 h

Recorded selectivity ratio at 504 h (molecule `O=[N+]([O-])c1cc(-c2nnc(SCc3ccccc3)n2Cc2ccccc2)cc(C(F)(F)F)c1` ): > 100

---

compounds and their reported MIC99
Tested on: Mycobacterium tuberculosis
assay summary: Antimycobacterial activity against multi-drug resistant Mycobacterium tuberculosis 234/2005 after 21 days
Assay type: functional
condition label: 234/2005, 504 h
State the answer as a number, implicitly in µM.

Take a look at these entries with their results.
>>> meas_value("O=[N+]([O-])c1cc(-c2nnc(SCc3ccccc3)n2Cc2ccccc2)cc(C(F)(F)F)c1")
0.06
>>> meas_value("O=[N+]([O-])c1cc(-c2nnc(SCc3ccc(Cl)cc3)n2Cc2ccccc2)cc([N+](=O)[O-])c1")
0.25
>>> meas_value("CCCSc1nnc(-c2cc([N+](=O)[O-])cc([N+](=O)[O-])c2)n1Cc1ccccc1")
0.125
>>> meas_value("CCCCCCCCSc1nnc(-c2cc([N+](=O)[O-])cc([N+](=O)[O-])c2)n1Cc1ccccc1")
0.25

Proceeding to the next compound to report its MIC99.
Item: `O=[N+]([O-])c1cc(CSc2nnc(C3CCCCC3)n2Cc2ccccc2)cc(C(F)(F)F)c1` | System: Mycobacterium tuberculosis | MIC99: 16

---

compounds and their reported MIC99
Tested on: Mycobacterium tuberculosis
assay summary: Antimycobacterial activity against multi-drug resistant Mycobacterium tuberculosis 8666/2010 after 14 days
Type: functional
condition label: 8666/2010, 336 h
State the answer as a number, implicitly in µM.

Take a look at these entries with their results.
>>> meas_value("O=[N+]([O-])c1cc(-c2nnc(SCc3ccc(Cl)c(Cl)c3)n2Cc2ccccc2)cc(C(F)(F)F)c1")
2
>>> meas_value("O=[N+]([O-])c1cc(CSc2nnc(-c3ccc(Br)cc3)n2Cc2ccccc2)cc([N+](=O)[O-])c1")
2
>>> meas_value("COc1ccc(Cn2c(SCc3cc([N+](=O)[O-])cc([N+](=O)[O-])c3)nnc2-c2ccccc2)cc1")
2

Recorded MIC99 (compound `Cn1c(SCc2ccc(Cl)c(Cl)c2)nnc1-c1cc([N+](=O)[O-])cc([N+](=O)[O-])c1` ): 0.06

Recorded MIC99 (compound `COc1ccc(CSc2nnc(-c3cc([N+](=O)[O-])cc(C(F)(F)F)c3)n2Cc2ccccc2)cc1` ): 0.5

Recorded MIC99 (compound `O=[N+]([O-])c1cc(-c2nnc(SCc3ccc(Cl)c(Cl)c3)n2Cc2ccccc2)cc([N+](=O)[O-])c1` ): 0.25

Recorded MIC99 (compound `O=[N+]([O-])c1cc(-c2nnc(SCc3ccccc3)n2Cc2ccccc2)cc(C(F)(F)F)c1` ): 0.06

Recorded MIC99 (compound `O=[N+]([O-])c1cc(-c2nnc(SCc3ccc(Br)cc3)n2Cc2ccccc2)cc([N+](=O)[O-])c1` ): 0.25

---

assay summary: Selectivity index, ratio of IC50 for human A431 cells to MIC>99 for antimycobacterial activity against multi-drug resistant Mycobacterium tuberculosis Praha 4 after 21 days
Format: toxicity
condition label: read-out: Selectivity Index
measured quantity: selectivity ratio at 504 h

Recorded selectivity ratio at 504 h (molecule `O=[N+]([O-])c1cc(-c2nnc(SCc3ccccc3)n2Cc2ccccc2)cc(C(F)(F)F)c1` ): > 100
